Exercise: for every item that follows, state its recorded Mutagenicity.
Species on record: Rattus norvegicus
procedureSummary: Mutagenic activity (Ames Salmonella Test) in the presence of rat liver S-9 fraction in TA-100 strain
Type: functional
Lab note: record just the number, no unit beside it.

Mutagenicity recorded for this molecule, CC(C)N(CC(O)COc1cccc2ccccc12)N=O (centres undefined) , is 137

Mutagenicity recorded for this molecule, CC(C)NO [ISOPROPYLHYDROXYLAMINE] , is 150

Mutagenicity recorded for this molecule, CC(C)N(O)CC(O)COc1cccc2ccccc12.O=C(O)C(=O)O (centres undefined) , is 143

Mutagenicity recorded for this molecule, CC(C)/[N+]([O-])=C/C(O)COc1cccc2ccccc12 (centres undefined) , is 162

Source listed as ChEMBL document CHEMBL1122457.
